Ref: the nanobody polyreactivity screen of Harvey et al. (2022)

ASSAY_INFO: yeast display, Sf9 membrane polyspecificity reagent, FACS + sequencing; frameworks hold sequencing errors
ATTRIBUTE_MEASURED: polyreactivity (PSR sort gate)

# RESIDUES, REPORTED
measured = [
    ("QVQLVESGVGLVQAGGSLRLSCAASGYIFFGNAMGWYRQAPGKERELVAAIRWRGTSTYYADSVKGRFTISRDNAKNTVYLQMNSLKPEDTAVYYCAADVVRSNFYGTFLYDYDYWGQGTQVTVSS", "low polyreactivity"),
    ("QVQLVESGGGLVQAGGSLRLSCAASGITFYVYAMGWYRPAPGKVRELVAAINYDSGSTYYADSVKGRFTISRDNAKNTVYLQMNSLKPEDTAVYYCATDGVNPFYAYDYWGQGTQVTVSS", "low polyreactivity"),
    ("QVQLVESGGGLVQAGGSLRLSCAPSGYTFARYAMGWSRQAPGKDRELVAAITSSGGSTYYADSVKGRFTSSRDNAKNTVYLQMNSLKPEDTAVYYCNARGFQKSDPRGYLILNYWGQGTQVTVSS", "high polyreactivity"),
    ("QVQLVESVGGLVKAGGSLRLSCAASGFIFYRYTMGWYRQDPGKERELVAGISSRGTRTYYADSVKGRFTISRDNAKNTVYLQMNSLKPEDTAVYYCAAVLTQPKKVNYWGQGTQVTVSS", "high polyreactivity"),
    ("QVQLVESGGGLVQAGGSLRLSCAASGFTFYRNAMGWYRQAPGKEREMVAAISWSGDSTYYADSVKGRFTISRDNAKNTVYLQMNSLNPEDTAVYYCAKERYFYYPWVTTYTSNYWGQGTQVTVSS", "low polyreactivity"),
    ("QVQLVESGGGLVQAGGSLRLSCAASGRTFNAYTMGSYRPAPGKERELVAAITSSGGNTYYADSVKGRFTISRDNAKNTVYLQMNSLKPEDTAVYYCNTVYLYGTHDYWGQGTQVTVSS", "low polyreactivity"),
    ("QVQLVESGGGLVQAGGSLRLSCAASGRTFYKYAMGWYRQAPGKEREFVADISSRGGSTYYADSVKGRFTISRDNAKNTVYLQMNSLKPEDTAVYYCAARPRPRSANGMYYWGQGTQVTVSS", "high polyreactivity"),
    ("QVQLVESGAGLVQAGGSLRLSCAASGRIFTKYAMGLYRQAPGKERELVAAISGSGGNTYYADSLKGRFTISRDNAKNTVYLQMNSLKPEDTAVYYCNRAKNAYLMDFWGQVTQVTVSS", "high polyreactivity"),
    ("QVQLVESGGGLVQAGGSLRLICAASGNTFYYYAMGWYRQAPGKERELVASITSTARTYYADSVKGRFTISRDNAKNTGYLQMNSLKPEDTAVYYCNAKEHYATRSDSCGQGTQVTVSS", "high polyreactivity"),
    ("QVQLVESGGGLVQAGGSLRLSCAASGRIFAHYAMGWYRQAPGKERELVADITDGGSTYYADSVKGRFTISRDNAKNTVYLQMNSLKPEDTAVYYVATRRGPWPSEYDSWGQGTQVTVSS", "low polyreactivity"),
    ("QVQLVESGGGLDQAGGSLRLSCAASGSIFSYYAMGWYRPAPGKERELVADNRWSGGSTYYADSVKGRFTISRDKAKNTVYLQMNSLKPEDTAVYYCNTLYLVYLYWTSPTPSDLFDYWGQGTQVTVSS", "low polyreactivity"),
    ("QVQLVESGGGLVQAGGSLRLSCAASGGIFARNVMGWYRQAPGKERELVAAISGSGGSTYYADSVKGRFTISRDNAKKTVYLQMNSLKPEDTAVYYCAARTPGVSVYKDGYWGQGTQVTVSS", "low polyreactivity"),
    ("QVQLVESGGGLVQAGGSLRLSCAASGSIFITYAMGWYRQAPGKERELVAAIRDSGDRTYYADSVKGRFTISRDNAKNTVYLQMNSLKPEDTAVYYCTARCQEPLKYDYSGQGTQVTVSS", "low polyreactivity"),
    ("QVQLVESGGGLVQAGGSLRLSCAASGFTFWYYDMGWYRQAPGKERELVAAISRSGTSTYYADSVKGRFTISRDNAKNTVYLQMNSLKPEDTAVYYCNKVRNTRSYDYWGQGTQVTVSS", "high polyreactivity"),
    ("QVQLVESGGGLVQAGGSLRLSCAASGSTFFRYAMGWYRQAPGKERELVAAISYSGDSTYYADSVKGRFTISRDNAKNTVDLQMNSLKPEDTAVYYCNAVYFRYRYNYWGQGTQVTVSS", "high polyreactivity"),
    ("QVQLVESGGGLVQAGGSLRISCAASGSTFWYYSMGWYRQAPGKERELVAAITRGGNTNYADSVKGRFTISRDNAKNTVYLQMNSLKPEDTAVYYCNADYKLADYREYNVYSFDYWGQGTQVTVSS", "low polyreactivity"),
    ("QVQLVESGGGLVQAGGSLRLSCAASGITSTVYAMGWYRQAPGKERELVAGISWSTSSTYYADSVKGRFTISRDNAKNTVYVQMNSLKPEDTAVYYCAKAGAYKYGYWGQGTQVTVSS", "high polyreactivity"),
    ("QVQLVESGGGLVQAGGSLRLSCAASGSTFDYYAMVWYRQAPGKEREFVAAISYSGGSTYYADSVKGRFTISRDNAKNTVYLQMNSLKPEDTAVYYCAAEGYYYNLYYWGQGTEVTVSS", "high polyreactivity"),
    ("QVQLVESGGGLVQAGGSLRLSCAASGSIFGTYTMGWYRQAPGKERELVASISRRGGSTYYADSVKGRFTISRDNAKNTVYLQMNSLKPEDTAVYYCAKPVYYLPGEYDYWGQGTQVTVSS", "high polyreactivity"),
    ("QVQLVESGGGLVQAGGSLRLSCAASGRTFYYNTMGWYRQAPGKERELVATITSSGGRTYYADSVKGRFTISRDNAKNTVYLQMNSLKPEDTAVYYCNAALSRAFKHSTGYDYWGQGTQVTVSS", "low polyreactivity"),
    ("QVQLVESGGGLVQAGGSLRLSCAASGYIFVVNAMGWYRQAPGKERELVAAIDWGGGSTYADSVKGRFTISRDNAKNTVYLQMNSLKPEDTAVYYCAADLWPYPNDYWGQGTQVTVSS", "low polyreactivity"),
]

###

ASSAY_INFO: yeast display, Sf9 membrane polyspecificity reagent, FACS + sequencing; frameworks hold sequencing errors

# RESIDUES, polyreactivity (PSR sort gate)
rows = [
    ("QVQLVESGGGLVQAGGSLRLSCAASGSTFGANAMGLYRQAPGKEREFVAAISRSGVRTYYADSVKGRFTISRDNAQNTVYLQMNSLKPEDTAVYYCAADGYWWTYTRYDYWGQGTQVTVSS", "low polyreactivity"),
    ("QVQLVESGGGLVQAGGSLRLSCAASGFTFHTYAMGWYRQAPGKERELVAAIDSSGGITYYADSVKGRFTISRDTAKNTVYLQMNSLKPEDTAVYYCAAVFLLFGFEWSYDYWGQGTQVTVSS", "low polyreactivity"),
    ("QVQLVESGGGLVQAGGSLRLSCAASGFIFYKYAMGWYRQAPRKEREFVASISGSGGRTYYADSVKGRFTISRDNAKNTVYLQMNSLKPEDTAVYYCAVDLLRRGFPTVVTTYDYWGQGTQVTVSS", "high polyreactivity"),
    ("QVQLVESGGGLVQAGGSLRLSCAASGFTFWDYAMGWYRQAPGKERELVAAISSRGTRTYYADSVKGRFTISRDNAKNTVYLQMNSLKPEDTAVYYCATAIPDPDYIHNYWGQGTQVTVSS", "high polyreactivity"),
    ("QVQLVESGGGLVQAGGSLRLSCAASGRIFIYNDMGWYRQAPGKERELVAAITFIDDSTNYADSVKGRFTISRDNAKYSVYLQMNRLKPEDTAVYYCAARLYSSASGVRWIKFDYWGQGTQVTVSS", "low polyreactivity"),
]

###

ASSAY_INFO: yeast display, Sf9 membrane polyspecificity reagent, FACS + sequencing; frameworks hold sequencing errors

# RESIDUES, polyreactivity (PSR sort gate)
measured = [
    ("QVQLVESGGGLVQAGGSLRLSCAASGSTFHRYAMGWSRQAPGKERELVATINLNTGSTYADSVKGRFTISRDNAKNTVYVQMNSLKPEDTAVYYCAAYGRWPFTWYNYWGQGTQVTVSS", "low polyreactivity"),
    ("QVQLVESGGGLVQAGGSLRLSCAASGLTFYGNAMGWYRQAPGKERELVAAISSSGGTTYYADSVKGRFTISRDNAKNTVYLQMNSLKPEDTAVYYYWGQGTQVTVSS", "low polyreactivity"),
    ("QVQLVESGGGLVQAGGSLRLSCAASGSTFYPYAKGWYRQAPRKERELVATITNSGGSTYYADSVKGRFTISRDNAKNTVYLQMNSLKPEDTAVYYCARVRSRNTGYYYWGQGTQVTVSS", "high polyreactivity"),
    ("QVQLEESGGGLVQAGGSLRLSCAASGFTFELYAMGWYRQAPGKVRELVAAISYSGGSTYYADSVKGRFTISRDNAKNTVYLQMNSLKPEDTAVYYCNAVYWPYSGPVYTIVDYWGQGTQVTVSS", "low polyreactivity"),
    ("QVQLVESGGGLVQAGGSLRLSCAASGFIFRYYAMGWYRQAPGKERELVATISSGGGTHYADSVKGRFTISRDNAKNTVYLQMNSLKPEDTAVYYCNARGYRRLRTRVDYWGQGTQVTVSS", "high polyreactivity"),
    ("QVQLVESGGGLVQAGGSLRLSCAASGFNFGTYAMGWYRQAPGKERELVAAISSGGSTYYADSVKGRFTISRDNAKNTVYLQMNSLKPEDTAVYYCAKEGGTYRIFNYWGQGTQVTVSS", "low polyreactivity"),
    ("QVQLVESGGGLVQAGGSLRLSCAASGTTIGVNAMGWYRQAPGKERDLVAAISRRGASTYYADSVKGRFTISLDNAKNTVYLQMNSLKPEETAVYYCAKAQVHDYIVSMDRYGYWGQGTQVTVSS", "low polyreactivity"),
    ("QLQLVESLGGLFQAGGILRLSCAASGRTLRGYGNGWYRQAPAKEREFVAAISTRGGRTYYADSVKGRFTISRDNAKNTVYLQMKILKPEDTAVYYCAAAYEPGDYDSWGQGTQVTVSS", "low polyreactivity"),
    ("QVQLVESGGGLVQAGGSLRLSCAASGSTFRYNAMGWYRQAPGKEREFVAAITTSGVRTYYADSVKGRFTISRDNAKNTVYLQMTSLKPEDSAVYYCAARANYIFYGMDYWGQGTLVTVSS", "high polyreactivity"),
    ("QVQLVESGGGLVQAGGSLRLSCAASGFTFASYAMGWYRQAPGKERELVAAITRRGGSTNYADSVKGRFTISRDNAKNTVFLQMISLKPEDTAVYYCNDLHGVWDPAYDYWGQGTQVTVSS", "low polyreactivity"),
    ("QVQLVESGGGLVQAGGSLRLSCAASGSIFISNAMGWYRQAPGKERELFAAINWTTGRTRYADSVKGRFTISRDNAKNTVYLQMNSLKPEDTAVYYCAARPYGGGRRSIYYYWGQGNQVTVSS", "high polyreactivity"),
]
